Biological target: T1, EGFR Fc (human, UniProt P00533 25-645)
T1 construct: also called EGFR-hFc; recombinant human EGFR-Fc
Experiment: ELISA, EGFR Fc coated, VHH at 0.0032 nM
readoutKind: OD450

pgEG-SX9 (VHH, not shown: small tags and cut ends) VHH: QVQLVESGGGLVQAGGSLRLSCAASVSGSALSNMAWYRQRPGNQRELVAHITFDNFTNYADSVKGRFTISRDNVKNTVDLQMSSLKPEDTAVYYCNARHFFGDNYWGKGTLVTVSS ... 0.237
pgEG-SX6 (VHH, not shown: small tags and cut ends) VHH: QVQLVESGGGTVQAGGSLRLSCVASGMREDIFDMGWYRQAPGLQRELVATITSGGSTDYADSVKGRFTISRDNTENTLNLQMNMLKPEDTAVYYCNALYFPPSGGRSSEFWGQGTLVTVSS ... 0.082
pgEG-SX20 (VHH, not shown: small tags and cut ends) VHH: QVQLVESGGGLVQAGGSLRLSCAGARSAFSIKPMTWYRQAPGKERELVAYFNSGGSTNYADSVKGRFTISRDNAKNTMYLQMNNLKPEDTAVYYCNAIPPLGSWGQGTQVTVSS ... 0.358
pgEG-SX3 (VHH, not shown: small tags and cut ends) VHH: QVQLVESGGGLVQAGGSLRLSCVVYGSIFASTTMGWYRQAPGKQRELVATVYQSGTSVYADSVKGRFTASRDNAKKTVYLQMNSLKPEDTAVYYCHPRATDYWGRGTQVTVSS ... 0.086
